Recorded values, source PubChem BioAssay AID1851.

- measured on: Cytochrome P450 2D6 (Homo sapiens) (UniProt P10635)
- Sequence (P10635 whole entry, looked up): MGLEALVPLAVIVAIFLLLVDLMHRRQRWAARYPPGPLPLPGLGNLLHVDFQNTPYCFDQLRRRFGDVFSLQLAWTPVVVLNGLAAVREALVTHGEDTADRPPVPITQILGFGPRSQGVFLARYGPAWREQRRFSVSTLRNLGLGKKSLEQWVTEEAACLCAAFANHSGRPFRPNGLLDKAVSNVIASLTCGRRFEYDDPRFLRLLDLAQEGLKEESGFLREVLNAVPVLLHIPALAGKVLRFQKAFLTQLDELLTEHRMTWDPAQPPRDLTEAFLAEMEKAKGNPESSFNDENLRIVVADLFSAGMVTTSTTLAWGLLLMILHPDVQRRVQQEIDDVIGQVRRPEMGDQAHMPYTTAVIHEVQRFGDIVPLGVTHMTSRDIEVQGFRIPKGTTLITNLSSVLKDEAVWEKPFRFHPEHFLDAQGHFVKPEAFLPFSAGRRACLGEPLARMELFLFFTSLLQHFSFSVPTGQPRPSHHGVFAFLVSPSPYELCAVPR
- assay name: Cytochrome panel assay with activity outcomes
- measurement setup: recombinant CYP, pro-luciferin dealkylation, luminescence, p450-cyp2d6; series mostly up to 57.1 µM
Hit rate of the full screen: of about 16,000 compounds, about 2,600 (16%) were called active. Not shown: some 20% with an inconclusive outcome. The list is a sample of the results.
measurement type: AC50

These recorded examples may help you get a feel for the data.
COC(=O)[C@H](CCSC)NC(=O)NCc1ccccc1F; inactive
Cc1cc(OC(=O)c2ccccc2Br)cc(=O)n1C; inactive
COc1ncc2nc(-c3cccs3)c(=O)n(-c3ccccc3)c2n1; inactive
COC(=O)[C@@H]1C[C@H]1[C@@H](NC(=O)c1ccccc1)c1ccccc1; inactive

Fill in the blank: the reported AC50 of COc1ccccc1N1CCN(CCCNc2cc(=O)n(C)c(=O)n2C)CC1 is ____.
inactive

Fill in the blank: the reported AC50 of COc1ccccc1N1CCN(CCCCNS(=O)(=O)c2cccc3c(N(C)C)cccc23)CC1 is ____.
15.8 µM (active)

Fill in the blank: the reported AC50 of CCc1cc2c(=O)c(-c3nc4ccccc4[nH]3)coc2cc1OC(=O)N1CCOCC1 is ____.
inactive

Fill in the blank: the reported AC50 of CS(=O)(=O)N1N=C(c2ccc(Br)cc2)CC1c1ccc2c(c1)OCO2 (stereo not given) is ____.
0.631 µM (active)

Fill in the blank: the reported AC50 of Cc1ccc(/S(C)=N/S(=O)(=O)c2ccc(C)cc2)cc1 (stereo not given) is ____.
inactive

Fill in the blank: the reported AC50 of COc1cccc(-c2cc3nc(-c4ccccc4)cc(N4CCC5(CC4)OCCO5)n3n2)c1 is ____.
inactive
